# System: SK-OV-3 ovarian
# assay: NCI tumour cell line growth inhibition, 48 h
Below is a list of entries, each paired with its recorded TGI value.

{"columns": ["compound", "TGI"],
 "data": [
  ["Cc1cc(S(=O)(=O)n2cc[nH]c2=O)c(SCCCN(C)C)cc1Cl", "> 100 µM"]
]}

Incoming: Give its TGI value. Item: Nc1n[nH]c2cccc(C#Cc3cccc(NC(=O)c4ccc(N5CCOCC5)c(C(F)(F)F)c4)c3)c12
Outgoing: 5.25 µM

Incoming: Give its TGI value. Item: COc1cc2c(c(O)c1OC)C(=O)C1CCC(=O)N1C2c1cccc2ccccc12 (stereo not given)
Outgoing: > 100 µM

Incoming: Give its TGI value. Item: NNC1=Nc2ccc(Cl)cc2C(=S)N2CSCC12 (stereo not given)
Outgoing: > 100 µM

Incoming: Give its TGI value. Item: CNC(=O)c1ccccc1Nc1cc(Nc2ccc(N3CCOCC3)cc2OC)ncc1C(F)(F)F
Outgoing: 57.6 µM

----------
# Tested on: OVCAR-8 ovarian
# assay: NCI tumour cell line growth inhibition, 48 h; in the data active = GI50 below about 0.43 µM; inactive = the rest
Just give me one of these, please: active, inactive

The examples below pair each entry with its known result.
{"columns": ["smiles.record", "system.under.test", "answer.label"],
 "data": [
  ["O=C1Nc2ccccc2/C1=C\\c1c(-c2ccccc2)nc2ccccn12", "OVCAR-8 ovarian", "inactive"],
  ["O=C1/C(=C/c2ccccc2)CN(C(=O)CCN2CCC(=NO)CC2)C/C1=C\\c1ccccc1", "OVCAR-8 ovarian", "inactive"],
  ["COc1cccc(C2=C(c3cn(C)c4ccc(Cl)cc34)C(=O)NC2=O)c1", "OVCAR-8 ovarian", "inactive"],
  ["C1C[OH+]CC[OH+]CC[OH+]CC[OH+]CC[OH+]CC[OH+]1.[Cl-].[V]", "OVCAR-8 ovarian", "inactive"],
  ["Cc1ccc(S(=O)(=O)c2ccccc2)cc1", "OVCAR-8 ovarian", "inactive"]
]}

Incoming: Recorded call for CSc1nc(-c2cc3ccccc3o2)cc(-c2ccc(Cl)cc2)c1C#N ?
Outgoing: inactive

Incoming: Recorded call for CC/C=C\C/C=C\C/C=C\CCCCCCCC(=O)OC ?
Outgoing: active

----------
# Tested on: CAKI-1 renal
# assay: NCI tumour cell line growth inhibition, 48 h
Below is a list of entries, each paired with its recorded TGI value.
Number in µM, nothing else.

Previously resolved entries follow.
{"columns": ["molecule", "units", "TGI"],
 "data": [
  ["Clc1ccc(C(Cn2ccnc2)OCc2ccsc2Cl)c(Cl)c1 (configuration not stated)", "µM", 7.36],
  ["C[CH2][Sn]([CH2]C)([O]C(=O)c1ccccc1F)[O]C(=O)c1ccccc1F", "µM", 19.6],
  ["C#Cc1cc(-c2nc3ccccc3s2)ccc1N", "µM", 50.4],
  ["COc1cccc(C2=C(c3cn(C)c4ccc(Cl)cc34)C(=O)NC2=O)c1", "µM", 16.8],
  ["COc1ccc2c(c1)/C(=N/OC(C)=O)c1c-2c(Nc2cccc(/C(C)=N/OC(C)=O)c2)nc2ccccc12", "µM", 55.9]
]}

Incoming: Give its TGI value. Item: O=C(c1ccc(Cl)c(Cl)c1)N1CCN(C(=O)c2ccc(Cl)c(Cl)c2)C1=S
Outgoing: 27.1

Incoming: Give its TGI value. Item: C[C@]12CC[C@@H]3c4ccc(O)cc4CC[C@H]3[C@@H]1CC[C@@H]2NS(=O)(=O)c1ccc(Cl)cc1
Outgoing: 10.4

Incoming: Give its TGI value. Item: COc1cc(/C=C/C(=O)c2ccc(Nc3nc(NCCO)nc(N4CCOCC4)n3)cc2)cc(OC)c1OC
Outgoing: 11

Incoming: Give its TGI value. Item: COc1cc2c(/C=C3/C(=O)Nc4c3ccc3ccccc43)c(Cl)n(C)c2cc1C
Outgoing: 12.6

Incoming: Give its TGI value. Item: O=C1C[C@@H](Sc2ccccc2)C2(OCCO2)C2ON3CCCC[C@H]3[C@H]12 (some centres not stated)
Outgoing: 21

Incoming: Give its TGI value. Item: ClCc1ccccc1Cn1cnc2c(Cl)nc(Cl)nc21
Outgoing: 1.59

Incoming: Give its TGI value. Item: CCC[CH2][Sn]1([CH2]CCC)[O]CC(CN2CCCCC2)[O]1 (configuration not stated)
Outgoing: 0.333

Incoming: Give its TGI value. Item: CC(C)(C)c1ccc(O)c(CN(Cc2c(O)ccc3ccccc23)C2CCCCC2)c1
Outgoing: 32.2

Incoming: Give its TGI value. Item: COc1ccc2c(c1)n([O-])c1cc(C#N)ccc1[n+]2=O
Outgoing: 14.6

Incoming: Give its TGI value. Item: COC(=O)C1=C(O)C(C(=O)OC)[C@@]2(O)[C@@H](C(=O)OC)C(c3ccc(OC(=O)/C=C/c4ccccc4)cc3)C[C@@H]1[C@@H]2C(=O)OC (some centres not stated)
Outgoing: 73

Incoming: Give its TGI value. Item: CCC(=O)Nc1ccc(NCC(=O)Nc2ccc(Cl)cc2)cc1
Outgoing: 53.7

Incoming: Give its TGI value. Item: CN(CCCN=C=S)CCCN1c2ccccc2CCc2ccccc21
Outgoing: 3.21

Incoming: Give its TGI value. Item: COc1cccc2[nH]c3c4c(c5c(c3c12)C(=O)N(CN1CCN(C)CC1)C5=O)CCC4
Outgoing: 38.8

Origin of the recorded values: PubChem BioAssay (NCI)
